Data origin: a collection of fitness landscapes (doi:10.1016/j.celrep.2020.107928)

Entries and their one-hybrid fitness for binding parS DNA
B1: Caulobacter ParB omega fusion; a variant is named by its letters at X, in order, B8GW30 (parent)
chain: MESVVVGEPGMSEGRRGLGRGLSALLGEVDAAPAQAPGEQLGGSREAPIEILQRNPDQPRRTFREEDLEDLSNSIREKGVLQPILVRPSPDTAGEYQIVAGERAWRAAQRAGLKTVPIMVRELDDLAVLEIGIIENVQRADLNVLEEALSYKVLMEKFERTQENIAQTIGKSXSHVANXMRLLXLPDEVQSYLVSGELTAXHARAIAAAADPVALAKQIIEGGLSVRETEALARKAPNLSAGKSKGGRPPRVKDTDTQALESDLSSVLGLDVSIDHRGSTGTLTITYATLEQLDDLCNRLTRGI

Variants of: B1
Assay: one-hybrid fitness for binding parS DNA (scaled: cognate 1, non-cognate 0); higher = stronger binding
Conditions: with parS DNA site
Over roughly 81,000 sequences, “one-hybrid fitness for binding parS DNA” has its median near -0.17; the highest 2% begin near 0.51. What follows is part of a selection rich in the highest values, with near analogues and random picks from the rest.

Look over these answered cases.
Mutation Name: DGHR
Observed Measurement: ≤ 0.2

Mutation Name: NRLA
Observed Measurement: ≤ 0.2

// switching to the query variant
For the variant shown here, `FRLV` , give the reported one-hybrid fitness for binding parS DNA.
≤ 0.2
